- Test system: Ehrlich tumour cells (murine mammary adenocarcinoma)
- experimentNotes: Effect of isomers and BLAS on in vivo tumour growth, Ehrlich tumours (Example 9)
- Set-up: species or system Balb/c mice
- testSettings: day 16 after tumour inoculation; 260 ng/mouse i.p. days 6, 7 and 14
parameterMeasured: Tumour volume, overall values (Median) (mm^3)
Response body: numeric value in mm^3, unit text excluded.

// below: answered compounds
Br.N[C@]1(C[n+]2ccccc2)C[C@H](C(=O)O)NC1=O.[Br-] (single isomer, unassigned; isomer 4) [isomer 4] = 36
Br.N[C@]1(C[n+]2ccccc2)C[C@@H](C(=O)O)NC1=O.[Br-] (single isomer, unassigned; isomer 3) [isomer 3] = 32
Br.N[C@@]1(C[n+]2ccccc2)C[C@H](C(=O)O)NC1=O.[Br-] (single isomer, unassigned; isomer 2) [isomer 2] = 40

Task: Fill: Tumour volume, overall values (Median) (Ehrlich tumour cells (murine mammary adenocarcinoma)) for this compound Br.N[C@@]1(C[n+]2ccccc2)C[C@@H](C(=O)O)NC1=O.[Br-] (single isomer, unassigned; isomer 1) [isomer 1]
Result: 47.25

====

- Tested on: Ehrlich tumour cells (murine mammary adenocarcinoma)
- experimentNotes: Effect of isomers and BLAS on in vivo tumour growth, Ehrlich tumours (Example 9)
- Parameters: species or system Balb/c mice
- testSettings: day 38 after tumour inoculation; 260 ng/mouse i.p. days 6, 7 and 14
parameterMeasured: Tumour volume, overall values (Mean) (mm^3)
Response body: numeric value in mm^3, unit text excluded.

Br.N[C@@]1(C[n+]2ccccc2)C[C@H](C(=O)O)NC1=O.[Br-] (single isomer, unassigned; isomer 2) [isomer 2] = 372.5

Task: Fill: Tumour volume, overall values (Mean) (Ehrlich tumour cells (murine mammary adenocarcinoma)) for this molecule Br.N[C@]1(C[n+]2ccccc2)C[C@H](C(=O)O)NC1=O.[Br-] (single isomer, unassigned; isomer 4) [isomer 4]
Result: 504.22

Task: Fill: Tumour volume, overall values (Mean) (Ehrlich tumour cells (murine mammary adenocarcinoma)) for this molecule Br.N[C@@]1(C[n+]2ccccc2)C[C@@H](C(=O)O)NC1=O.[Br-] (single isomer, unassigned; isomer 1) [isomer 1]
Result: 425.91

Task: Fill: Tumour volume, overall values (Mean) (Ehrlich tumour cells (murine mammary adenocarcinoma)) for this molecule Br.N[C@]1(C[n+]2ccccc2)C[C@@H](C(=O)O)NC1=O.[Br-] (single isomer, unassigned; isomer 3) [isomer 3]
Result: 387.69

====

- System: Ehrlich tumour cells (murine mammary adenocarcinoma)
- experimentNotes: Effect of isomers and BLAS on in vivo tumour growth, Ehrlich tumours (Example 9)
- Parameters: species or system Balb/c mice
- testSettings: day 35 after tumour inoculation; 260 ng/mouse i.p. days 6, 7 and 14
# Lookup of reported Tumour volume, overall values (Mean) keyed by entry
Response body: numeric value in mm^3, unit text excluded.

Br.N[C@@]1(C[n+]2ccccc2)C[C@@H](C(=O)O)NC1=O.[Br-] (single isomer, unassigned; isomer 1) [isomer 1] = 342.94
Br.N[C@]1(C[n+]2ccccc2)C[C@@H](C(=O)O)NC1=O.[Br-] (single isomer, unassigned; isomer 3) [isomer 3] = 293.87
Br.N[C@]1(C[n+]2ccccc2)C[C@H](C(=O)O)NC1=O.[Br-] (single isomer, unassigned; isomer 4) [isomer 4] = 379.72

# evaluate next
Task: Quote Tumour volume, overall values (Mean) reported for Br.N[C@@]1(C[n+]2ccccc2)C[C@H](C(=O)O)NC1=O.[Br-] (single isomer, unassigned; isomer 2) [isomer 2] please.
Result: 258.06

====

# Lookup of reported Tumour surface, overall values (Median) keyed by entry
- Test system: Ehrlich tumour cells (murine mammary adenocarcinoma)
- experimentNotes: Effect of isomers and BLAS on in vivo tumour growth, Ehrlich tumours (Example 9)
- Design: species or system Balb/c mice
- testSettings: day 13 after tumour inoculation; 260 ng/mouse i.p. days 6, 7 and 14
- Text: This assay was made in order to compare the effect of each stereoisomer on in vivo tumour growth in mice with the effect of the mixture of all of them challenged with Ehlrich tumours. The same products, equipment, reagents, doses, vehicle and route of administration as in example 8 were used. […] Mice were observed daily and the tumour size recorded twice a week. […] Results were expressed as single values and/or as the mean±SD or median from each experimental group. […]
Response body: numeric value in mm^2, unit text excluded.

// below: answered compounds
Br.N[C@@]1(C[n+]2ccccc2)C[C@@H](C(=O)O)NC1=O.[Br-] (single isomer, unassigned; isomer 1) [isomer 1] = 16
Br.N[C@@]1(C[n+]2ccccc2)C[C@H](C(=O)O)NC1=O.[Br-] (single isomer, unassigned; isomer 2) [isomer 2] = 16
Br.N[C@]1(C[n+]2ccccc2)C[C@@H](C(=O)O)NC1=O.[Br-] (single isomer, unassigned; isomer 3) [isomer 3] = 9

# evaluate next
Task: Fill: Tumour surface, overall values (Median) (Ehrlich tumour cells (murine mammary adenocarcinoma)) for this compound Br.N[C@]1(C[n+]2ccccc2)C[C@H](C(=O)O)NC1=O.[Br-] (single isomer, unassigned; isomer 4) [isomer 4]
Result: 12.5

====

- System: ASB XIV cells (pulmonary squamous cell carcinoma)
- experimentNotes: Effect of isomers and BLAS on in vivo tumour growth, ASB XIV tumours (Example 8)
- Parameters: species or system Balb/c mice
- testSettings: day 19 after tumour inoculation; 260 ng/mouse i.p. days 6, 7 and 14
# Lookup of reported Tumour surface, overall values (Mean) keyed by entry
Response body: numeric value in mm^2, unit text excluded.

// below: answered compounds
Br.N[C@]1(C[n+]2ccccc2)C[C@@H](C(=O)O)NC1=O.[Br-] (single isomer, unassigned; isomer 3) [isomer 3] = 15.16
Br.N[C@@]1(C[n+]2ccccc2)C[C@H](C(=O)O)NC1=O.[Br-] (single isomer, unassigned; isomer 2) [isomer 2] = 29.84
Br.N[C@@]1(C[n+]2ccccc2)C[C@@H](C(=O)O)NC1=O.[Br-] (single isomer, unassigned; isomer 1) [isomer 1] = 19.65

# evaluate next
Task: Quote Tumour surface, overall values (Mean) reported for Br.N[C@]1(C[n+]2ccccc2)C[C@H](C(=O)O)NC1=O.[Br-] (single isomer, unassigned; isomer 4) [isomer 4] please.
Result: 14.59

====

- Test system: Ehrlich tumour cells (murine mammary adenocarcinoma)
- experimentNotes: Effect of isomers and BLAS on in vivo tumour growth, Ehrlich tumours (Example 9)
- Design: species or system Balb/c mice
- testSettings: day 8 after tumour inoculation; 260 ng/mouse i.p. days 6, 7 and 14
# Lookup of reported Tumour surface, overall values (Median) keyed by entry
Response body: numeric value in mm^2, unit text excluded.

Br.N[C@]1(C[n+]2ccccc2)C[C@@H](C(=O)O)NC1=O.[Br-] (single isomer, unassigned; isomer 3) [isomer 3] = 0
Br.N[C@]1(C[n+]2ccccc2)C[C@H](C(=O)O)NC1=O.[Br-] (single isomer, unassigned; isomer 4) [isomer 4] = 0
Br.N[C@@]1(C[n+]2ccccc2)C[C@H](C(=O)O)NC1=O.[Br-] (single isomer, unassigned; isomer 2) [isomer 2] = 4

# evaluate next
Task: Quote Tumour surface, overall values (Median) reported for Br.N[C@@]1(C[n+]2ccccc2)C[C@@H](C(=O)O)NC1=O.[Br-] (single isomer, unassigned; isomer 1) [isomer 1] please.
Result: 2

====

- System: ASB XIV cells (pulmonary squamous cell carcinoma)
- experimentNotes: Effect of isomers and BLAS on in vivo tumour growth, ASB XIV tumours (Example 8)
- Set-up: species or system Balb/c mice
- testSettings: day 22 after tumour inoculation; 260 ng/mouse i.p. days 6, 7 and 14
parameterMeasured: Tumour volume, overall values (Mean) (mm^3)
Response body: numeric value in mm^3, unit text excluded.

// below: answered molecules
Br.N[C@]1(C[n+]2ccccc2)C[C@@H](C(=O)O)NC1=O.[Br-] (single isomer, unassigned; isomer 3) [isomer 3] = 116.65
Br.N[C@@]1(C[n+]2ccccc2)C[C@H](C(=O)O)NC1=O.[Br-] (single isomer, unassigned; isomer 2) [isomer 2] = 292.39
Br.N[C@]1(C[n+]2ccccc2)C[C@H](C(=O)O)NC1=O.[Br-] (single isomer, unassigned; isomer 4) [isomer 4] = 118.19

Task: Quote Tumour volume, overall values (Mean) reported for Br.N[C@@]1(C[n+]2ccccc2)C[C@@H](C(=O)O)NC1=O.[Br-] (single isomer, unassigned; isomer 1) [isomer 1] please.
Result: 179.79
